study-target: Prostaglandin D2 receptor 2 (Homo sapiens)
Sequence (Q9Y5Y4 whole entry): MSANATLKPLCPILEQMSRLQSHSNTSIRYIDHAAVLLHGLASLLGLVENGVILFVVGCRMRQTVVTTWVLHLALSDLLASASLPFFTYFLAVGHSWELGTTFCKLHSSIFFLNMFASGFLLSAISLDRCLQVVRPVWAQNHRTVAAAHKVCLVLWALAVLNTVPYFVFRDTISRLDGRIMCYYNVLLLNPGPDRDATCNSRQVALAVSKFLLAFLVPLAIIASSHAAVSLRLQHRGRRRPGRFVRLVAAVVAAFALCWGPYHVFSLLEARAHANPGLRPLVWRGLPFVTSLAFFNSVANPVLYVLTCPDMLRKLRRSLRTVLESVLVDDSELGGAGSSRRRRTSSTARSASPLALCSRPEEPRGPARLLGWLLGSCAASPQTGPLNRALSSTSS
experiment-description: The inhibitory activity can be investigated by a radioligand binding assay (Sawyer et al., Br. J. Pharmocol 2002, 137, 1163-72). The radioligand binding assay was performed at room temperature in binding buffer (10 mM HEPES/KOH pH […], with protease inhibitor cocktail tablets), containing 1.5 nM [3H]PGD2 (Amersham, 156 Cie/mmol), and 10 ug of hCRTH2 HEK293 (EBNA) cell membrane protein in a final volume of 100 ul in 96 well plates (Corning, USA). Non-specific binding was determined in the presence of 1 uM PGD2 (Cayman, USA). Competing pyrazine sulfonamides were diluted in dimethylsulphoxide so that the total volume of dimethylsulfoxide was kept constant at 1% dimethylsulphoxide (Me2SO). 10 ul of the pyrazine sulfonamides were added. Incubation (60 min at room temperature) was terminated by rapid filtration through 96 wells hydrophobic GF/C Unifilter plates.
pKi: −log10 of the molar value.
property-label: pKi

>  <compound-smiles>
O=S(=O)(Nc1nccnc1-c1ccc(COc2ccc(Cl)nc2)cc1)c1ccccc1C(F)(F)F

>  <property-label>
pKi

>  <measured-number>
6.14

$$$$
>  <compound-smiles>
COc1ccc2c(c1)cc(C)n2Cc1ccc(-c2nccnc2NS(=O)(=O)c2ccccc2Cl)cc1

>  <property-label>
pKi

>  <measured-number>
5.66

$$$$
>  <compound-smiles>
O=S(=O)(Nc1nccnc1-c1ccc(Cn2ccc3cc(F)ccc32)cc1)c1ccccc1C(F)(F)F

>  <property-label>
pKi

>  <measured-number>
6.02

$$$$
>  <compound-smiles>
CN(Cc1ccc(-c2nccnc2NS(=O)(=O)c2ccccc2C(F)(F)F)cc1)c1ccc(Cl)c(Cl)c1

>  <property-label>
pKi

>  <measured-number>
5.80

$$$$
>  <compound-smiles>
O=S(=O)(Nc1nccnc1-c1ccc(CN2CCc3ccccc32)cc1)c1ccccc1C(F)(F)F

>  <property-label>
pKi

>  <measured-number>
5.57

$$$$
>  <compound-smiles>
CN(Cc1ccc(-c2nccnc2NS(=O)(=O)c2ccccc2C(F)(F)F)cc1)c1ccc(C#N)cc1

>  <property-label>
pKi

>  <measured-number>
6.33

$$$$

The origin of these recorded values is ChEMBL document CHEMBL3638482.
